# SYSTEM: OX2 (Homo sapiens, UniProt O43614)
# EXPERIMENT_NOTES: Orexin-receptor binding ability, [125I]-OX-A, CHO cell membranes expressing OX2
# Parameters: expressed in transfected cells; host or cells: CHO cells (membrane preparation)
# CONDITION: membranes of recombinant CHO cells, 0.2 nM [125I]-OX-A tracer; read-out: OX2 (IC50)
pIC50: −log10 of the molar value.
RECORDED_METRIC: pIC50

# COMPOUND, pIC50
data = [
    ("CCn1cc(OC[C@@]2(c3cccc(F)c3)C[C@H]2C(=O)Nc2ccccn2)c(C)n1", 8.10),
]

(A) COc1cncc(NC(=O)[C@@H]2C[C@@]2(COc2cc(=O)n(C)nc2C)c2ccccc2)c1
(B) CCn1nc(C)cc1OCC1(c2ccccc2)CC1C(=O)Nc1ccc(Cl)cn1 (stereo not shown)
(C) COc1nc(C)n(CCC2(c3ccccc3)CC2C(=O)Nc2ccc(Cl)cn2)n1 (stereo not shown)
Rank by pIC50 (largest to smallest). Rank them, then answer with their labels in that order. A, B, C
(A: 8.30, B: 7.34, C: 7.05)

----------
# SYSTEM: OX2 (Homo sapiens, UniProt O43614)
# Sequence (O43614 1-444): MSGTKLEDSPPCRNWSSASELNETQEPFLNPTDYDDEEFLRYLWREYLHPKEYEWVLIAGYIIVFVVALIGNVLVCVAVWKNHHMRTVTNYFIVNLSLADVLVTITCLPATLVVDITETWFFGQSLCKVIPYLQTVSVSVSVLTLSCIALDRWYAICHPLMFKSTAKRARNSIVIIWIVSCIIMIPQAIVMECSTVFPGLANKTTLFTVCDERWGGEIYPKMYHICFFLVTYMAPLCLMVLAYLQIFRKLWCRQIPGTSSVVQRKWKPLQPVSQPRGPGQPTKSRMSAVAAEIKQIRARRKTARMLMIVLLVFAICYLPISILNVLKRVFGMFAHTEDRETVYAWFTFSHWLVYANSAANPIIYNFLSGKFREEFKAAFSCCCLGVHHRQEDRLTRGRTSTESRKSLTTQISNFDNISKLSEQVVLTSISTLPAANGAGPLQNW
# EXPERIMENT_NOTES: Antagonism PLAP reporter assay, HEK-293 cells expressing human OX2
# CONDITION: HEK-293, 1 nM human OX-A; IC50 converted to Ki by Cheng-Prusoff equation
pKi: −log10 of the molar value.
RECORDED_METRIC: pKi

The following compounds have reported results that may help.
# COMPOUND, pKi
data = [
    ("COc1ccc(OCC2(c3ccccc3)CC2C(=O)Nc2ccc(F)cn2)cc1OC (stereo not drawn)", 8.38),
    ("CCn1nc(C)cc1OCC1(c2ccccc2)CC1C(=O)Nc1ccc(F)cn1 (stereo not drawn)", 7.68),
    ("CCn1nc(C)cc1OCC1(c2ccccc2)CC1C(=O)Nc1ccc(Cl)cn1 (stereo not drawn)", 7.50),
    ("CCc1nc(Cl)cn1CCC1(c2ccccc2)CC1C(=O)Nc1ccc(F)cn1 (stereo not drawn)", 7.20),
    ("CCn1cc(OCC2(c3ccccc3)CC2C(=O)Nc2ccc(F)cn2)c(C)n1 (stereo not drawn)", 7.98),
]

(I) COc1ccc(OCC2(c3ccccc3)CC2C(=O)Nc2ccccc2)cc1OC (stereo not drawn)
(II) COc1ccc(OCC2(c3ccccc3)CC2C(=O)Nc2nc(C)cs2)cc1OC (stereo not drawn)
Which one would you say has the larger pKi value: I , or II ? Identify your pick by its label. II
(II: 7.80, I: 7.27)

----------
# SYSTEM: OX2 (Homo sapiens)
# EXPERIMENT_NOTES: Antagonism PLAP reporter assay, HEK-293 cells expressing human OX2
# CONDITION: HEK-293, 1 nM human OX-A; IC50 converted to Ki by Cheng-Prusoff equation
RECORDED_METRIC: Ki (nM)

# COMPOUND, Ki / nM
measured = [
    ("CCn1nc(C)c(Cl)c1OCC1(c2ccccc2)CC1C(=O)Nc1ccc(Cl)cn1 (centres unmarked)", 30.8),
    ("COc1ccc(OC[C@@]2(c3ccccc3)C[C@H]2C(=O)Nc2ccccn2)cc1OC", 24.8),
    ("Cc1nc(C(F)(F)F)nn1CC[C@@]1(c2ccccc2)C[C@H]1C(=O)Nc1ccc(Cl)cn1", 10),
    ("COc1ccc(OCC2(c3ccccc3)CC2C(=O)Nc2cc(Cl)ccn2)cc1OC (centres unmarked)", 11),
]

(A) CCc1nc(Cl)cn1CCC1(c2ccccc2)CC1C(=O)Nc1ccc(C#N)cn1 (centres unmarked)
(B) COc1ccc(OC[C@@]2(c3ccccc3)C[C@H]2C(=O)Nc2ccc(C#N)cn2)cc1OC
Quick check, higher Ki between A and B ? Identify your pick by its label. A

----------
# SYSTEM: OX2 (Homo sapiens)
# EXPERIMENT_NOTES: Orexin-receptor binding ability, [125I]-OX-A, CHO cell membranes expressing OX2
# Design: expressed in transfected cells; host or cells: CHO cells (membrane preparation)
# CONDITION: membranes of recombinant CHO cells, 0.2 nM [125I]-OX-A tracer; read-out: OX2 (IC50)
RECORDED_METRIC: IC50 (nM)

Worked cases, IC50 given:
# MOLECULE, UNIT_ANNOTATION, ASSAY_VALUE
rows = [
    ("COc1ccc(OCC2(c3ccccc3)CC2C(=O)Nc2nc(C)ns2)cc1OC (stereo not shown)", "nM", 43),
    ("COc1ccc(OC[C@@]2(c3ccccc3)C[C@H]2C(=O)Nc2ccccn2)cc1OC", "nM", 35),
]

(A) COc1ccc(OCC2(c3ccccc3)CC2C(=O)Nc2ccccc2-c2nnc[nH]2)cc1OC (stereo not shown)
(B) Cc1cnc(OC[C@@]2(c3ccccc3)C[C@H]2C(=O)Nc2ccc(C#N)cn2)c(C)n1
Of A and B , whose reported IC50 is the larger number? // return label of chosen record A

----------
# SYSTEM: OX2 (Homo sapiens)
# EXPERIMENT_NOTES: Orexin-receptor binding ability, [125I]-OX-A, CHO cell membranes expressing OX2
# Design: expressed in transfected cells; host or cells: CHO cells (membrane preparation)
# Experimental: The assay was carried out using a 96-well Wheat Germ Agglutinin Flash Plate (PerkinElmer). The volume in a single assay well was 100 ul, and the composition of the reaction solution was as follows: […] Cell membranes were prepared from recombinant CHO cells that expressed OX2 or OX1. […] Finally, the radioactivity of each well was measured using a scintillation counter (TopCount, PerkinElmer). […]
pIC50 values by entry
Value format note: pIC50 is -log10 of concentration (mol/L); just state the number.

# example entries with known answers
# MOLECULE, ASSAY_VALUE
records = [
    ("COc1ccc(S(=O)(=O)CC2(c3ccccc3)CC2C(=O)Nc2ccc(Cl)cn2)cc1OC (stereo not shown)", 7.10),
    ("COc1ccc(OCC2(c3ccccc3)CC2C(=O)Nc2cccc(F)n2)cc1OC (stereo not shown)", 8.40),
    ("COc1cc(F)c(OCC2(c3ccccc3)CC2C(=O)Nc2ccccn2)cc1OC (stereo not shown)", 7.70),
    ("COc1ccc(OCC2(c3ccccc3)CC2C(=O)Nc2ccc(F)nc2)cc1OC (stereo not shown)", 7.37),
    ("CCn1cc(OC[C@@]2(c3ccccc3)C[C@H]2C(=O)Nc2ccc(F)cn2)ccc1=O (racemic)", 7.85),
    ("COc1ccc(OCC2(c3ccccc3)CC2C(=O)Nc2ccncc2C(F)(F)F)cc1OC (stereo not shown)", 7.57),
]

Answer with the recorded pIC50 of COc1ccc(OCC2(c3ccccc3)CC2C(=O)Nc2ccc(Cl)cn2)cc1OC (stereo not shown) only. 8.52

----------
# SYSTEM: OX2 (Homo sapiens)
# EXPERIMENT_NOTES: Antagonism PLAP reporter assay, HEK-293 cells expressing human OX2
# CONDITION: HEK-293, 1 nM human OX-A; IC50 converted to Ki by Cheng-Prusoff equation
pKi: −log10 of the molar value.
RECORDED_METRIC: pKi

# example entries with known answers
# COMPOUND, pKi
data = [
    ("COc1ccc(CCC2(c3ccccc3)CC2C(=O)Nc2ccccn2)cc1OC (centres unmarked)", 6.81),
    ("CCn1cc(OCC2(c3ccccc3)CC2C(=O)Nc2ccc(C#N)cn2)cn1 (centres unmarked)", 6.72),
    ("Cc1nc(C(F)(F)F)nn1CC[C@@]1(c2ccccc2)C[C@H]1C(=O)Nc1ccc(F)cn1", 7.50),
    ("COc1ccc(OCC2(c3ccccc3)CC2C(=O)Nc2ccncc2C(F)(F)F)cc1OC (centres unmarked)", 6.41),
    ("CCn1cc(OCC2(c3ccccc3)CC2C(=O)Nc2ccc(C#N)cn2)ccc1=O (centres unmarked)", 7.36),
    ("CCn1nc(C)c(Cl)c1OCC1(c2ccccc2)CC1C(=O)Nc1ccc(F)cn1 (centres unmarked)", 7.51),
    ("COc1ccc(OCC2(c3ccccc3)CC2C(=O)Nc2nc(C)ns2)cc1OC (centres unmarked)", 7.25),
    ("COc1ccc(OCC2(c3ccccc3)CC2C(=O)Nc2cc(C)no2)cc1OC (centres unmarked)", 7.04),
    ("COc1ccc(OCC2(c3ccccc3)CC2C(=O)Nc2cncc(F)c2)cc1OC (centres unmarked)", 7.08),
    ("COc1ccc(OCC2(c3ccccc3)CC2C(=O)Nc2ccccc2-c2nnc[nH]2)cc1OC (centres unmarked)", 6.91),
]

(1) COc1ccc(OCC2(c3ccccc3)CC2C(=O)Nc2cc(C)on2)cc1OC (centres unmarked)
(2) CCc1nc(C)c(CC[C@@]2(c3ccccc3)C[C@H]2C(=O)Nc2ccc(C#N)cn2)s1
(3) Cc1noc2cc(OCC3(c4ccccc4)CC3C(=O)Nc3ccc(C#N)cn3)ccc12 (centres unmarked)
Please list these compounds in decreasing order of pKi. Give me the labels in the order the question wants. 2, 3, 1

(a) CCn1cc(OCC2(c3ccccc3)CC2C(=O)Nc2ccc(Cl)cn2)cn1 (centres unmarked)
(b) COc1cccc(NC(=O)C2CC2(COc2ccc(OC)c(OC)c2)c2ccccc2)c1 (centres unmarked)
(c) COc1ccc(OCC2(c3ccccc3)CC2C(=O)Nc2cc(C)ccn2)cc1OC (centres unmarked)
Arrange these 3 compounds in increasing order of pKi. Would you mind listing the labels in the order requested? a, c, b
(a: 7.11, c: 7.37, b: 8.35)
